Molecular target: human IL-6 (human, UniProt P05231 30-212)
Sequence (P05231 30-212 limits assumed): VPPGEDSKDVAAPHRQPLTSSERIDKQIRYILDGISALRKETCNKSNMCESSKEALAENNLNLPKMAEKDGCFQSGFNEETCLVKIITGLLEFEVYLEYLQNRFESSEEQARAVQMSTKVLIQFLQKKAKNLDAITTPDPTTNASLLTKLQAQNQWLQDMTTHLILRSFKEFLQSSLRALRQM
Test: SPR (Biacore), supernatant antibody on Protein A chip, IL-6 flowed, 37 C
Entries and their koff
The figure you give is taken to be in s⁻¹; do not add the unit.

BINDER: anti-IL-6 antibody, heavy chain S35A, G66D / light chain M32L, M50D, N52S, M88Q (antibody, human IgG1, V domains shown, Human IgG1) VH: EVQLVESGGGLVQPGGSLRLSCAASGFTFSPFAMAWVRQAPGKGLEWVAKISPGGSWTYYSDTVTDRFTFSLDTSKSTAYLQMNSLRAEDTAVYYCARQLWGYYALDIWGQGTLVTVSS VL: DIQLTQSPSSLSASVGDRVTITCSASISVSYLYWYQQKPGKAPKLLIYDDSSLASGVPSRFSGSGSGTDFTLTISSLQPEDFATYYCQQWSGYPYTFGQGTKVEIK
koff, s⁻¹: 0.00126
//
BINDER: anti-IL-6 antibody, heavy chain T63F, G66D / light chain M32L, M50D, N52S, M88Q (antibody, human IgG1, V domains shown, Human IgG1) VH: EVQLVESGGGLVQPGGSLRLSCAASGFTFSPFAMSWVRQAPGKGLEWVAKISPGGSWTYYSDFVTDRFTFSLDTSKSTAYLQMNSLRAEDTAVYYCARQLWGYYALDIWGQGTLVTVSS VL: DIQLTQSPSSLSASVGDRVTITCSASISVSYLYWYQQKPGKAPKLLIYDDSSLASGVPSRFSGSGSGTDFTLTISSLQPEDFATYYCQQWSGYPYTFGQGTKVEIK
koff, s⁻¹: 0.000459

Now look at this one.
Problem: Fill in: koff of anti-IL-6 antibody, heavy chain T63V, G66D / light chain M32L, M50D, N52S, M88Q (antibody, human IgG1, V domains shown, Human IgG1) VH: EVQLVESGGGLVQPGGSLRLSCAASGFTFSPFAMSWVRQAPGKGLEWVAKISPGGSWTYYSDVVTDRFTFSLDTSKSTAYLQMNSLRAEDTAVYYCARQLWGYYALDIWGQGTLVTVSS VL: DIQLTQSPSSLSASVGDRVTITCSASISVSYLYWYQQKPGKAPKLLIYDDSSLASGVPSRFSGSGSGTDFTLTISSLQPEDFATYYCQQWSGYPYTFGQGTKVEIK is ___
Result: 0.00043

These data points were gathered from patent US20240209076A1.
